All figures here come from paper PMC9482650.

# MEASURED ON: TJP1_2, Q07157
# Sequence (Q07157 181-274): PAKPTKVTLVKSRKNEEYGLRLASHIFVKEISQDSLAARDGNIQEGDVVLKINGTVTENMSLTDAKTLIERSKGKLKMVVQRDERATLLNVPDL
# PROTOCOL TEXT: holdup assay
# Set-up: key: below the threshold = too weak to quantify, mostly under pKd 3.1 to 4
# CONDITION DESCRIPTION: plain residues with an end cap or a label only (N-terminal biotin on a linker: ado-ado)
QUANTITY: pKd

// known answers, use as guide
ELSATVTTDC [TRIP6, Q15654]: 4.06
PSVGSKKTVL [REELD1, A0A1B0GV85]: below the threshold
AAVENKVTDL [PLXNB1, O43157]: below the threshold
TNSRHGETTV [FZD2, Q14332]: below the threshold
KKMLQRRTLL [OR8G1, Q15617]: below the threshold
RQKEVRESKC [SCN8A, Q9UQD0]: below the threshold

Q) Reported pKd, binder LPAVCYDIDI [PTTG2, Q9NZH5] : ____
A) 4.32

Q) // next record LKDDELKTKL [SLCO1A2, P46721]
A) below the threshold

Q) Item: EPQYQPGENL [SRC, P12931]
A) below the threshold

Q) Now consider QRPYRRGSEI [KCNJ18, B7U540] and answer again.
A) below the threshold
